Tested on: DMS-273
EXPERIMENTAL_DETAILS: NCI tumour cell line growth inhibition, 48 h
The source made the active and inactive calls. Cut-off read from the data, not from the text of the source: active = GI50 up to about 1.1 µM and inactive = higher.
Outcome codes: label 1 for active, label 0 for inactive

* CC(=O)N1CC(=O)NC1=S | label 0
* COc1c(C)c2c(c3c1c(=O)c1ccccc1n3C)C=CC(C)(C)O2 | label 0
* COc1ccc(C2Oc3cc(OC)c(OC)cc3C2CCl)cc1OC (configuration not stated) | label 0
* O=C(Oc1ccc(Cl)cc1[N+](=O)[O-])c1ccccc1 | label 0
* CCN(CC)C(=S)SCC(=O)Nc1nc2c(s1)CCCC2 | label 0
* Cc1cccc(NC(=O)c2c(N)[n+]([O-])c3ccccc3[n+]2[O-])c1 | label 0
* CNC(=S)NC(=S)N(C)C | label 1
* Cc1cccc(C)c1NC(=O)CCC/C(CC(=O)c1ccc(F)cc1)=N\NC(=O)C(=O)NN | label 0
* CN(C)C(=O)CC(C(=O)O)c1c[nH]c2ccccc12 (configuration not stated) | label 0
* O=C(Cn1ccnc1[N+](=O)[O-])c1ccccc1 | label 0
* CCOC(=O)C1=C(C)C2C3C(=O)NC(=O)C3C1(C)C1C(=O)NC(=O)C21 (configuration not stated) | label 0
* O=c1c2cc(Br)ccc2nc(-c2ccccc2)n1NCC1(O)OCC(O)C(O)C1O (configuration not stated) | label 0

----------
Tested on: SW-620
EXPERIMENTAL_DETAILS: NCI tumour cell line growth inhibition, 48 h
Calls of active or inactive are those of the source. Cut-off read from the data, not from the text of the source: active = GI50 up to about 1.1 µM and inactive = higher. Where a SMILES comes first, the peptide text is derived from it. The star is where a group is joined. Boc = CC(C)(C)OC(=O)*
Outcome codes: active, inactive

* CC1NC(=O)C2Cc3ccc(O)c(c3)Oc3ccc(cc3)C(O)C(C(=O)N2C)N(C)C(=O)C(C)NC(=O)C(Cc2ccc(O)cc2)N(C)C(=O)C(C)NC1=O (stereo not drawn) | inactive
* Nc1nc(N)c2cc(-c3ccccc3)cnc2n1 | inactive
* N#Cc1ccc(C2ON=C(c3ccccc3)N2C23CC4CC(CC(C4)C2)C3)cc1 (stereo not drawn) | inactive
* CC1=CC(=O)C(C(O)(C(F)(F)F)C(F)(F)F)C(C)(C)C1 (stereo not drawn) | inactive
* Cc1ccc2oc(=O)c3c(O)c4cccc(OC5OC(C)C6O[C@@H](c7ccccc7)OC6C5OC5OC(C)C(O)C(O)C5O)c4c4oc(=O)c1c2c34 (stereo partly drawn) | active
* N[C@H](CCC(=O)NCP(=O)(O)O)C(=O)O | inactive
* COC(=O)C(C)NC(=O)C(CCSC)NC(=O)C(Cc1ccccc1)NC(=O)OC(C)(C)C (stereo not drawn) (Boc-Phe-Met-Ala-OMe; configuration not given here) | inactive
* CCCCN(CCCC)c1c([N+](=O)[O-])c(=O)nc2ccccn12 | inactive

----------
Tested on: M19-MEL
EXPERIMENTAL_DETAILS: NCI tumour cell line growth inhibition, 48 h
Calls of active or inactive are those of the source. Rule as the data show it: active = GI50 up to about 1.1 µM and inactive = higher.
ASSAY_METRIC: GI50

* CCOC(=O)C1N(S(=O)(=O)c2ccc(C)cc2)CCC12C(c1ccc(OC)c(OC)c1)=Nc1ccccc12 (stereo not given) | > 100 µM (inactive)
* COC1=C(C(=O)OC(C)(C)C)C23CCCCC2(C(C(=O)OC(C)(C)C)=C(OC)C3C(=O)OC(C)(C)C)C1C(=O)OC(C)(C)C (stereo not given) | 25 µM (inactive)
* O=C(Cn1ccnc1[N+](=O)[O-])c1ccccc1 | > 100 µM (inactive)
* CCOC(=O)C1(C)CCC(C(C(=O)O)C(=O)O)CC1=O (stereo not given) | > 100 µM (inactive)
* COc1ccc(C(C)Nc2cc(OC)c(OC)c(OC)c2)cc1 (stereo not given) | 4.75 µM (inactive)
* CCOC(=O)c1cc(=O)n(C)c(=O)n1C | > 100 µM (inactive)
* c1ccc(C(c2ccccc2)c2cccnc2)cc1 | > 100 µM (inactive)
* O=C(O)CCC(=O)OCN1C(=O)C2C3C=CC(C2C1=O)C1C2C(=O)N(COC(=O)CCC(=O)O)C(=O)C2C31 (stereo not given) | > 61.1 µM (inactive)
* COc1ccc2c(c1)CC1c3c(ccc(OC)c3O)CC2N1C (stereo not given) | 23 µM (inactive)
* O=C(/C=C/c1ccc([N+](=O)[O-])o1)N1CCN(Cc2ccccc2)CC1 | 6.43 µM (inactive)
